The values you see were collected from patent US20240084017A1.

Target: human Mac-1 (integrin αMβ2, CD11b/CD18) (human, UniProt P11215 17-1152; P05107 23-769)
Experiment: flow cytometry, HEK293/Mac-1 cells (clone 1-4), PBS/MnCl2 (Mn2+)
Listed here are binders together with their documented Mn^2+ MFI.
reportedProperty: Mn^2+ MFI (MFI)

{"columns": ["binder", "numericReadout"],
 "data": [
  ["anti-Mac-1 antibody clone 24G05 (antibody, human IgG4, V domains shown) VH: EVQLVESGGGLVQPGGSLRLSCAASGFTFTSYWMTWVRQAPGKGLEWVSTIVGGGGEADYADSVKGRFTISRDNSKNTLYLQMNSLRAEDTAVYYCARDYVADNHGAMDYWGQGTLVTVSS VL: DIQMTQSPSSLSASVGDRVTITCRASQGLSSYLNWYQQKPGKAPKLLIYGMSTLQSGVPSRFSGSGSGTDFTLTISSLQPEDFATYYCMQYYHWPYTFGQGTKVEIK", 44800],
  ["anti-Mac-1 antibody clone 28D06 (antibody, human IgG4, V domains shown) VH: QVKLQQSGPELVKPGASVKISCKASGYSFTDYNMNWVKQSNGKSLEWIGEINPNYGTTRYNQKFKGKATLTVDQSSSTAYMQLNSLTSEDSAVYYCARPSIYYDYDDAMDYWGQGTTVTVSS VL: DIELTQSPAIMSASPGEKVTMTCSASSSVNYMYWYQQKPGSSPRLLIYDTSNLASGVPVRFSGSGSGTSYSLTISRMEAEDAATYYCQQWITYPPTLTFGAGTKLEIK", 30600],
  ["anti-Mac-1 antibody clone 24F09 (antibody, human IgG4, V domains shown, also called 24F9) VH: EVQLVESGGGLVQPGGSLRLSCAASGFTFSSAWMSWVRQAPGKGLEWVSTIYWSGSEINYADSVKGRFTISRDNSKNTLYLQMNSLRAEDTAVYYCARSFASGESAMDVWGQGTLVTVSS VL: DIQMTQSPSSLSASVGDRVTITCRASQSISNYLAWYQQKPGKAPKLLIYDASNLQSGVPSRFSGSGSGTDFTLTISSLQPEDFATYYCQQYYSSPPTFGQGTKVEIK", 33900],
  ["anti-Mac-1 antibody clone 25A06 (antibody, human IgG4, V domains shown) VH: EVQLVESGGGLVQPGGSLRLSCAASGFTFSSYYMSWVRQAPGKGLEWVSTINYDGSEKDYADSVKGRFTISRDNSKNTLYLQMNSLRAEDTAVYYCARDRLGNYPWFDVWGQGTLVTVSS VL: DIQMTQSPSSLSASVGDRVTITCRASQSISNYLAWYQQKPGKAPKLLIYDANNLQSGVPSRFSGSGSGTDFTLTISSLQPEDFATYYCQQSYSWPLTFGQGTKVEIK", 39400],
  ["anti-Mac-1 antibody clone 24G09 (antibody, human IgG4, V domains shown) VH: EVQLVESGGGLVQPGGSLRLSCAASGFTFSDYAIGWVRQAPGKGLEWVSTIYWSGSNAYYADSVKGRFTISRDNSKNTLYLQMNSLRAEDTAVYYCARLFTLGYHGFDVWGQGTLVTVSS VL: DIQMTQSPSSLSASVGDRVTITCRASQSINTYLNWYQQKPGKAPKLLIYDASNLQSGVPSRFSGSGSGTDFTLTISSLQPEDFATYYCQQYDDLPFTFGQGTKVEIK", 26900],
  ["anti-Mac-1 antibody clone DF3M-5 (antibody, human IgG4, V domains shown) VH: EVQLVESGGGLVQPGGSLRLSCAASGFTFGTYDMHWVRQAPGKGLEWVSMISPSGGDTYYADSVKGRFTISRDNSKNTLYLQMNSLRAEDTAVYYCARDSSGDWYAMAYWGQGTLVTVSS VL: DIQMTQSPSSLSASVGDRVTITCRASQSIRRYLAWYQQKPGKAPKLLIYGASNLQSGVPSRFSGSGSGTDFTLTISSLQPEDFATYYCQHSSDTPLTFGQGTKVEIK", 52500],
  ["anti-Mac-1 antibody clone 27A06 (antibody, human IgG4, V domains shown) VH: QVKLQQSGPELVTPGASVKISCKPSGYSFTDYNMNWVKQSNGKSLEWIGEINPNYGTTRHNQKFKGKASLTVDQSSSTAYMQLISLTSEDSAVYYCARTYDYDEDAFAYWGQGTTVTVSS VL: DIELTQSPAIMSASPGEKVTMTCSASSSVSYMHWYQQKSDTSPKRWIYDTSKLASGVPARFSGSGSGTSYSLTISSMEAEDAATYYCQQWSSNPPTFGAGTKLELK", 48000],
  ["anti-Mac-1 antibody clone 27G04 (antibody, human IgG4, V domains shown) VH: QVKLQESGPELVKPGASVKISCKASGYSFTDYNMNWVKQSNGKSLEWIGVINPNYGTTSYNQKFKGKATLTVDQSSSTAYMQLNSLTSEDSAVYYCARTFDYDDDAFAYWGQGTTVTVSS VL: DIELTQSPAIMSASPGEKVTITCSASSSVSDMHWYQQKSGTSPKRWIYDTSKLASGVPARFSGSGSGTSYSLTISNMEAEDAATYYCQQWSSNPPTFGAGTKLELK", 41100],
  ["anti-Mac-1 antibody clone 24F08 (antibody, human IgG4, V domains shown) VH: EVQLVESGGGLVQPGGSLRLSCAASGFTFSSYWMSWVRQAPGKGLEWVSIINYSGREADYADSVKGRFTISRDNSKNTLYLQMNSLRAEDTAVYYCARDGSYVGQAHEAFDIWGQGTLVTVSS VL: DIQMTQSPSSLSASVGDRVTITCRASQSISKYLAWYQQKPGKAPKLLIYGTSNLQSGVPSRFSGSGSGTDFTLTISSLQPEDFATYYCQQSRSWPLTFGQGTKVEIK", 42100],
  ["anti-Mac-1 antibody clone H4L2 (antibody, human IgG4, V domains shown) VH: QVQLVQSGAEVKKPGASVKVSCKASGYTFTNYWINWVRQAPGQRLEWMGNIYPSDTYINHNQKFKDRVTITRDTSASTAYMELSSLRSEDTAVYYCARSAYANYFDYWGQGTLVTVSS VL: EIVMTQSPATLSVSPGERATLSCRASQNIGTSIHWYQQKPGQAPRLLIYYASESISGIPARFSGSGSGTEFTLTISSLQSEDFAVYYCQQSDSWPTLTFGQGTKLEIK", 45700]
]}
